Target: recombinant human AGO2 (rhAGO2) (Homo sapiens, UniProt Q9UKV8 1-859)
Sequence (Q9UKV8 whole entry): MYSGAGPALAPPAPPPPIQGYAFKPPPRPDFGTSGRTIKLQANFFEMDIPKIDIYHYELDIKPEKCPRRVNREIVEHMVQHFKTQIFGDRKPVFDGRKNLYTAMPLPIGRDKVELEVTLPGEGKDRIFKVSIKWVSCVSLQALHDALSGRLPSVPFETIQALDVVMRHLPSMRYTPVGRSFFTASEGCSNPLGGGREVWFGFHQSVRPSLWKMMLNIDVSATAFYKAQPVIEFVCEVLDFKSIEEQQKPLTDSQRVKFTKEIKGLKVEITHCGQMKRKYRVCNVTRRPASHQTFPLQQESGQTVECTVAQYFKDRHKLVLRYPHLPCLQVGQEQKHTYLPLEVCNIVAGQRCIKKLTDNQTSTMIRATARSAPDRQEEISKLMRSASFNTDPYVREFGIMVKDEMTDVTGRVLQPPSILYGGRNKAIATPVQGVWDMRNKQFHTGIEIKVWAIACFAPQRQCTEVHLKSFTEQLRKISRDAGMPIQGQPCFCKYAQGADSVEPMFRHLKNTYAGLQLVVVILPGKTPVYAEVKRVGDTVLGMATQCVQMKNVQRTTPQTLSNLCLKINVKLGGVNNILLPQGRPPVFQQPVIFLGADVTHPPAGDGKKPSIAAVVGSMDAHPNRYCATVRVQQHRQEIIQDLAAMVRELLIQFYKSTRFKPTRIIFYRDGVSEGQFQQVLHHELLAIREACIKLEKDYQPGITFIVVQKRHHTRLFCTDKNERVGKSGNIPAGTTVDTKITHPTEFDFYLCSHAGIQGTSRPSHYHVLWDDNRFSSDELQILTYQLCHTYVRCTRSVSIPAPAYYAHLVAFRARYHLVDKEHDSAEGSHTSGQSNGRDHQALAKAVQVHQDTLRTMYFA
Assay: EMSA; 25 C; EMSA: 10 mM HEPES-KOH pH 7.4, 50 mM KCl, 1 mM DTT, 3% Ficoll-400, 0.1 mg/ml BSA, 10 nM RNA, 0-200 nM hAGO2, 30 min at 25 or 37 C, 6% native gel at 4 C; RISC assembly in HEK293T lysate at 0.75-3.75 mM Mg2+, 25 or 37 C
Conditions: protein: recombinant; tags: N-terminal FLAG and His; label: 32P; single strand
pKd: −log10 of the molar value.
EXPERIMENTAL ENDPOINT: pKd

>>> test_result("UGGAAUGUAAAGAAGUAUGUA (ssRNA) [miR-1 guide ssRNA]")
"~7.35"

Data credit: paper PMC4627090
